Sequence of the target: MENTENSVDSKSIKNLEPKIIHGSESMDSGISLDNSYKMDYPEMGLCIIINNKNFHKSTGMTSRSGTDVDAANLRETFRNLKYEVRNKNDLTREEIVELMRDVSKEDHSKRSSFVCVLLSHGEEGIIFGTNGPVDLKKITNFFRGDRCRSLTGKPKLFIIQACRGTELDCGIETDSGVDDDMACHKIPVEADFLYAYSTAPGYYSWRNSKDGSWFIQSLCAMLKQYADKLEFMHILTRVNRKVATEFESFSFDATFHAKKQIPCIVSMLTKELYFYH
pKi: −log10 of the molar value.
The entries below pair compounds with pKi values for the protein given by its sequence, as found in several publications.
OBSERVATION_TYPE: pKi

* CN1C(=O)C(=O)c2cc(S(=O)(=O)N3CCC[C@H]3COc3ccccc3)ccc21 | 7.96
* O=C(O)C[C@H](NC(=O)c1ccc(CNS(=O)(=O)c2ccc(O)c(C(=O)O)c2)nc1)C(=O)CSCc1ccccc1Cl | 7.52
* O=C1Nc2ccc(S(=O)(=O)N3CCC[C@H]3COc3cccnc3)cc2C1=O | 7.79
* COc1ccc(CN2C(=O)C(=O)c3cc(S(=O)(=O)N4CCC[C@H]4COc4cccnc4)ccc32)cc1 | 8.36
* O=C1C(=O)N(Cc2ccccc2)c2ccc(S(=O)(=O)N3CCC[C@H]3COc3ccccc3)cc21 | 8.60
